Give measured growth for each item. Keep answers brief.
# System: IGROV1 ovarian
# RUN DESCRIPTION: NCI-60 one-dose screen, 48 h (100 = growth as untreated, 0 = no growth, -100 = all killed)
# MEASUREMENT PARAMETERS: 10 µM unless noted
Compounds without any hit were thinned out: in the full panel of roughly 83,000, 20% have a hit.
One number for each entry, in %.

Here's what some known entries look like.
Problem: Hello, I am looking for reported growth with IGROV1 ovarian for Cc1ccc(Nc2cc(N)nc(N)n2)cc1 . Could you help?
Result: 92.4

Problem: Hello, I am looking for reported growth with IGROV1 ovarian for CCOC(=O)CC1CSC(N/N=C(/C)c2cccc(C(F)(F)F)c2)=N1 (stereo not given) . Could you help?
Result: 94.5

Problem: Hello, I am looking for reported growth with IGROV1 ovarian for COc1cccc(C2C3=C(COC3=O)N(CCO)c3cc4c(cc32)OCCO4)c1 (stereo not given) . Could you help?
Result: 13.8

Problem: Hello, I am looking for reported growth with IGROV1 ovarian for O=C1c2c(c3c4cccnc4[nH]c3c3ccc4ccccc4c23)C(=O)N1O . Could you help?
Result: 38

Problem: Hello, I am looking for reported growth with IGROV1 ovarian for Cc1nc2cccc(NCc3ccc(C(=O)NO)cc3)c2c(=O)n1-c1ccccc1 . Could you help?
Result: 20.4

Look at each compound and report its growth.
1. Cc1cc([N+](=O)[O-])ccc1NC(=O)c1ccc2c(c1)nc(-c1ccccc1)n2C1CCCCC1
2. C#CCOc1cccc(Nc2c(Cl)c(CCl)nc3ccc(Oc4ccccc4)cc23)c1

Result:
1. 111
2. 43.2

Look at each compound and report its growth.
1. COCCn1cc(-c2nc(-c3cc4cccnc4n3C)cs2)c2cc(OC)ccc21
2. CCCN1C(=O)N(CCC)C2C1NC(=S)N2/N=C/C=C/c1ccccc1OC (stereo not given)
3. C=C(c1ccc(OC)c(/C=C/C(=O)c2cc(OC)c(OC)c(OC)c2)c1)c1cc(OC)c(OC)c(OC)c1

Result:
1. 28.4
2. 30.6
3. 15.2

Hello, the source for this data is PubChem BioAssay (NCI), in case you need it.
